- MEASUREMENT_PROTOCOL: Displacement of [3H]KA from KA receptor in rat cortical synaptosomes
- Format: subcellular, Brain
OBSERVED_PROPERTY: pIC50
Value format note: pIC50 is -log10 of concentration (mol/L); just state the number.

Worked examples, 2 compounds total:
COMPOUND: N[C@@H](CC1=CCCCc2onc(O)c21)C(=O)O
pIC50: 5.80
//
COMPOUND: CC(C)(C)c1onc(O)c1C[C@H](N)C(=O)O
pIC50: 4.64

Could you now look at the following compound, please?
Bench note: what pIC50 did CC1CCC=C(C[C@H](N)C(=O)O)c2c(O)noc21 (mixture of isomers) show?
5.08
